System: SERPINE1prom-Luc reporter in NAMEC8 cells
Test: Dual-Glo luciferase assay of SERPINE1prom-Luc reporter (FF/Ren)
Assay type: cell-based, human
Settings: primary screen; NAMEC8-SERPINE1prom-Luc cells grown 3 days with compound; relative to DMSO
# if measured Avr FF/Renilla from DMSO < 0.5: Met  # else: Not met

CCCCCC(O)/C=C/C1C(=O)CC(O)C1C/C=C\CCCC(=O)OCC(O)CO (centres unmarked) [Prostaglandin D2-1-glyceryl ester] : Not met
O=C(Nc1ccc2[nH]ncc2c1)C1CCC1 [Rhodblock 6] : Not met
CCCCC/C=C\C=C1\C(=O)C[C@H](O)[C@@H]1C/C=C\CCCC(=O)O [15-deoxy-_12,14-Prostaglandin D2] : Not met
C/C(=C\c1ccc(C(=O)O)cc1)c1ccc2c(c1)C(C)(C)CCC2(C)C [TTNPB] : Met
N#C/C(=C\c1ccc(O)c(O)c1)C(=O)NCc1ccccc1 [AG-490] : Met
NC(=O)c1ccc(-c2nc(-c3ccc4c(c3)OCCO4)c(-c3ccccn3)[nH]2)cc1 [D 4476] : Not met
CCCCC[C@H](O)/C=C/[C@H]1[C@H](O)CC(=O)[C@@H]1CC(=O)CCCCC(=O)O [6-keto Prostaglandin E1] : Not met
